target: uterine OT receptors (Rattus norvegicus); construct: from tissue; host or cells: uterus of DES-treated rats, crude membranes; assay: [^3 H]OT binding to uterine OT receptors, crude membrane preparation of uteri from DES-treated rats; details: 1 h; @ 10 (nM); read-out: [^3 H]OT: percent inhibition of radioligand at the given concentration
Sequence (P70536 whole entry): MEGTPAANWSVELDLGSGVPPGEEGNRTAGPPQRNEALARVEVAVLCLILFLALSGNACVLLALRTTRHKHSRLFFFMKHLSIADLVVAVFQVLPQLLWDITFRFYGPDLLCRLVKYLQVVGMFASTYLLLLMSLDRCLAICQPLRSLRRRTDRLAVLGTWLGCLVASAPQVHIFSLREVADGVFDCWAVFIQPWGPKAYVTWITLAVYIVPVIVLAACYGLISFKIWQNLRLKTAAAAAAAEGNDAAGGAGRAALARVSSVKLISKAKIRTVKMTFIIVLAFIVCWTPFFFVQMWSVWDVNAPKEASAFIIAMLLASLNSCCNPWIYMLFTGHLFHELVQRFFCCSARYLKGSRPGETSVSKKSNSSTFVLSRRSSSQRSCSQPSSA
Numbered stars: 1 amine (or outer) side, 2 acyl side, 3 side chain; on linkers, the order of the positions; unused ones are H or OH. Square brackets hold non-standard residues; d marks the D form. Peptide text beside a SMILES is read from it. dPip(4-aza,4-Cbz) = O=C(O)[C@H]1CN(C(=O)OCc2ccccc2)CCN1; X2 = O=C(OCc1ccccc1)N1CCN([*:1])[C@H](C(=O)[*:2])C1; d1Nal = N[C@H](Cc1cccc2ccccc12)C(=O)O; d2Nal = N[C@H](Cc1ccc2ccccc2c1)C(=O)O; dNMeF = CN[C@H](Cc1ccccc1)C(=O)O; Pip = O=C(O)[C@@H]1CCCCN1; dPip = O=C(O)[C@H]1CCCCN1
measured.quantity: inhibition at 0.01 µM
Mention the unit after the number when you answer.

compound	inhibition at 0.01 µM
CC[C@H](C)[C@@H]1NC(=O)[C@@H](Cc2ccc3ccccc3c2)NC(=O)[C@@H]2CCCN2C(=O)[C@@H](Cc2c[nH]cn2)NC(=O)[C@H]2CN(C(=O)OCc3ccccc3)CCN2C(=O)[C@H]2CCCCN2C1=O [Example 160] (cyclo(I[dPip][dPip(4-aza,4-Cbz)][dH]P[d2Nal]))	53%
CC[C@H](C)[C@@H]1NC(=O)[C@@H](Cc2cccc3ccccc23)NC(=O)[C@@H]2CCCN2C(=O)[C@@H](Cc2c[nH]cn2)NC(=O)[C@@H]2CCCCN2C(=O)[C@H]2CCCCN2C1=O [Example 11] (cyclo(I[dPip][Pip][dH]P[d1Nal]))	39%
CC[C@H](C)[C@@H]1NC(=O)[C@@H](Cc2ccc3ccccc3c2)NC(=O)[C@@H]2CCCN2C(=O)[C@@H](Cc2c[nH]cn2)NC(=O)[C@@H]2CN(C(=O)OCc3ccccc3)CCN2C(=O)[C@H]2CCCCN2C1=O [Example 158] (cyclo(I[dPip][X2][dH]P[d2Nal]))	60%

Pending compound:
[Q] Sample CC[C@H](C)[C@@H]1NC(=O)[C@@H](Cc2ccc3ccccc3c2)NC(=O)[C@@H]2CCCN2C(=O)[C@@H](Cc2ccccc2)N(C)C(=O)[C@@H]2CN(C(=O)OCc3ccccc3)CCN2C(=O)[C@H]2CCCCN2C1=O [Example 169] (cyclo(I[dPip][X2][dNMeF]P[d2Nal])) — what was its inhibition at 0.01 µM?
[A] 74%

###

Reported values of IC50 for individual entries
target: AVP-V2 sites (Rattus norvegicus, UniProt Q00788); construct: male rat liver (AVP-V1 sites) or kidney medulla (AVP-V2 sites); from tissue; host or cells: male rat kidney medulla, crude membranes; test: [^3 H]AVP binding to crude membrane preparation of male rat kidney medulla (AVP-V2 sites); details: rat kidney medulla membranes, 2 nM [^3 H]AVP; read-out: Receptor Binding Results IC50 (nM) [^3 H]-AVP-V2
Sequence (Q00788 whole entry): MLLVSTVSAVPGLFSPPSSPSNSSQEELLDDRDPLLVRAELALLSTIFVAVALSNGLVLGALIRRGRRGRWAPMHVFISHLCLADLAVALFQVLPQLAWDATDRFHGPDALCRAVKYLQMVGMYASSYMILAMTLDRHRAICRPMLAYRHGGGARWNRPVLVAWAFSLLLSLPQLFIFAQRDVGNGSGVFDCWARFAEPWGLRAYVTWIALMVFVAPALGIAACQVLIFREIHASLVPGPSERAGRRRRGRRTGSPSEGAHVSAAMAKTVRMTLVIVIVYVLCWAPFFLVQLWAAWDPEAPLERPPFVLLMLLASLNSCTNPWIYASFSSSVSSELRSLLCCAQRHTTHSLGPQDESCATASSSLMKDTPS
Square brackets hold non-standard residues; d marks the D form. Peptide text beside a SMILES is read from it. * marks the point of attachment. dPip(4-aza,4-Cbz) = O=C(O)[C@H]1CN(C(=O)OCc2ccccc2)CCN1; dNMeF = CN[C@H](Cc1ccccc1)C(=O)O; dPip = O=C(O)[C@H]1CCCCN1; Orn = NCCC[C@H](N)C(=O)O; Cbz = O=C(OCc1ccccc1)*
API: value field is a number in nM; no unit string.

compound	measured.quantity	unit.name	experimental.value
CC[C@H](C)[C@@H]1NC(=O)[C@@H](Cc2c[nH]c3ccccc23)NC(=O)[C@@H]2CCCN2C(=O)[C@@H](Cc2ccccc2)N(C)C(=O)[C@H](CCCNC(=O)OCc2ccccc2)NC(=O)[C@H]2CCCCN2C1=O [Example 34] (cyclo(I[dPip][Orn](Cbz)[dNMeF]P[dW]))	IC50	nM	10000

Turning now to a further compound:
[Q] Could you share which IC50 value was measured for CC[C@H](C)[C@@H]1NC(=O)[C@@H](Cc2ccccc2)NC(=O)[C@@H]2CCCN2C(=O)[C@@H](Cc2ccccc2)N(C)C(=O)[C@H]2CN(C(=O)OCc3ccccc3)CCN2C(=O)[C@H]2CN(C(=O)OCc3ccccc3)CCN2C1=O [Example 85] (cyclo([dF]I[dPip(4-aza,4-Cbz)][dPip(4-aza,4-Cbz)][dNMeF]P)) ?
[A] 10000
